Data provenance: ChEMBL document CHEMBL1146715

Experimental System: Poly [ADP-ribose] polymerase 1 (Mus musculus)
Protocol Notes: Percent inhibition of poly(ADP-ribose) polymerase-1 (PARP-1) in mouse using Cell protection assay at 10 uM
Property Name: inhibition (%)

Answered examples (2):
compound="Nc1ncnc2c1ncn2C1O[C@H](CNC(=O)/C=C/c2ccc(C(=O)Nc3cccc4c3CNC4=O)cc2)[C@@H](O)[C@H]1O (some centres undefined)" observed_value=51
compound="O=C(CCCCCCC(=O)Nc1cccc2c1CNC2=O)NC[C@H]1OC(n2cnc3c(O)ncnc32)[C@H](O)[C@@H]1O (some centres undefined)" observed_value=30

a. O=C1N=Cc2ccccc21
b. NC(=O)c1cccc(NC(=O)CCC(=O)NCC2OC(n3cnc4c(N)ncnc43)[C@H](O)[C@@H]2O)c1 (some centres undefined)
Data request: Between the entries labeled a and b , whose measured inhibition is lower? // output: label of the selected item
Data returned: a
